# credit: patent US11168078B2

# TARGET_SYSTEM: IDO (Homo sapiens)
# Construct: endogenous in cells; host or cells: HeLa cells stimulated with recombinant human interferon-gamma
# Sequence (P14902 whole entry): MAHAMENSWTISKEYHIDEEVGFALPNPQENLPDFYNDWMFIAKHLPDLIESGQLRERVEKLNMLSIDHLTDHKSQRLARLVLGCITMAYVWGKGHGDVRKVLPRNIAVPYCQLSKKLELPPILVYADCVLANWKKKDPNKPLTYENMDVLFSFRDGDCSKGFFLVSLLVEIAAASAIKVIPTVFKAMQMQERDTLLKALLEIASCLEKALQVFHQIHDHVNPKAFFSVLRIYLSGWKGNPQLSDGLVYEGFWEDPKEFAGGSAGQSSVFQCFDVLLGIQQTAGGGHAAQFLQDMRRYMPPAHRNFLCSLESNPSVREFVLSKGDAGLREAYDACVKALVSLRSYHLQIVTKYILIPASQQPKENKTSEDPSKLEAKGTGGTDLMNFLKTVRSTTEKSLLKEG
# PROCEDURE_DETAILS: IDO Cell-Based NEK Green Assay (NFK Green, N-formyl kynurenine level)
# COND: Hela cells, 1 mM L-Tryptophan, 100 ng/mL recombinant human interferon-gamma, 2 days, NFK Green fluorescence
Would you kindly list pIC50 for each of these compounds?
Entry type: numeric. Quantity: pIC50, the -log10 of concentration in molar units.

IN: Item: CN=S(C)(=O)NCCNc1nonc1/C(=N/O)Nc1ccc(F)c(Cl)c1 (centres unmarked) Test system: IDO (Homo sapiens) Read-out: pIC50 Value: ?
OUT: 7.56

IN: Cool, now CN=S(=O)(CCCNc1nonc1/C(=N/O)Nc1ccc(F)c(Br)c1)NC (centres unmarked)
OUT: 7.97

IN: And then "CS(=N)(=N)CCNc1nonc1/C(=N/O)Nc1ccc(F)c(Br)c1" , what is it?
OUT: 7.91

IN: Let us now turn to C#Cc1cc(N/C(=N\O)c2nonc2NCCNS(=N)(=O)CC)ccc1F (centres unmarked)
OUT: 7.79

IN: What about "CS(=N)(=N)CCCNc1nonc1/C(=N/O)Nc1ccc(F)c(Br)c1" ?
OUT: 7.33

IN: Then this compound: "N=S(=N)(CCNc1nonc1/C(=N/O)Nc1ccc(F)c(Br)c1)C1CC1"
OUT: 7.28

IN: Now consider CN=S(=O)(CCCNc1nonc1/C(=N/O)Nc1ccc(F)c(Cl)c1)NC (centres unmarked) .
OUT: 7.63

IN: Please do the same for CCS(=N)(=O)NCCCNc1nonc1/C(=N/O)Nc1ccc(F)c(Cl)c1 (centres unmarked) as well.
OUT: 7.78

IN: Record: "C#Cc1cc(N/C(=N\O)c2nonc2NCCN=S(C)(C)=O)ccc1F"
OUT: 7.58

IN: What do you have for "CCS(=N)(=N)CCNc1nonc1/C(=N/O)Nc1ccc(F)c(C#N)c1" ?
OUT: 6.71

IN: # iterate: "CS(C)(=O)=NCCCNc1nonc1/C(=N/O)Nc1ccc(F)c(Cl)c1"
OUT: 6.95
